target-under-test: human IK (Homo sapiens (Human), UniProt O15554)
test-summary: Inhibition of IK channels expressed in HEK293 cells, thallium (I) sensitive FLIPR assay
Type: cell-based
particulars: HEK293 cells over-expressing human IK; Tl+-sensitive BTC fluorescence (FLIPR); inhibition of activity induced by Ca2+-ionophore A23187
Experimental: Following experiment determines the ability of a test compound to inhibit the activity of IK channels heterologously expressed in human HEK293 cells, and was used as the primary screen. The ability is determined as per cent inhibition of the activity induced by addition of the Ca^2+-ionophore A23187 (considered a maximum response). […] Full concentration/response curves are generated and IC50 values are calculated based on the degree of inhibition of the maximum response. […]
Here the recorded pIC50 is given for each entry.
The read-out pIC50 is expressed as -log10 of concentration in moles per litre.

Some solved entries appear below for comparison.
query: Tell me reported pIC50 for `OCc1ccccc1-c1ccccc1-c1nnnn1-c1ccccc1F` , tested with human IK (Homo sapiens (Human), UniProt O15554).
result: 6.11

query: Same question for `N#Cc1ccccc1-n1nnnc1-c1ccccc1-c1ccccc1OC(F)F` please.
result: 6.68

query: Same question for `COc1ccccc1-c1ccccc1-c1nnnn1-c1ccccc1C#N` please.
result: 7.19

Further cases:
query: Tell me reported pIC50 for `Fc1ccccc1-c1ccccc1-c1nnnn1-c1ccccc1F` , tested with human IK (Homo sapiens (Human), UniProt O15554).
result: 6.15
